Reference source: patent US20140377340A1

# System: purified HLA DRB4*0101 (Homo sapiens, UniProt P01903+P13762, G164S)
# Construct: purified from EBV transformed homozygous cell lines or single MHC allele transfected 721.221, C1R, or fibroblast lines; made in house
# Procedure Details: HLA-DR radioligand binding inhibition assay, DRB4*0101
# Measurement Context: IC50 nM purified HLA DRB4 *0101, purified HLA DRB4*0101
# Procedure: Instead, wells of an opaque white 96-well Optiplate (Packard) are coated with 3 μg (100 μl@ 30 μg/ml) of HLA-specific antibody (Ab) that “capture” complexes of radiolabeled MHC and unlabeled peptide transferred from the molecular binding assay plate in 100 μl of 0.05% NP40/PBS. […] Captured complexes are then measured on a microplate scintillation and luminescence counter (TopCount NXTTM; Packard). […]
compounds and their reported IC50
Readout Label: IC50 (nM)

| Compound | System | Result Unit | Meas Value |
| --- | --- | --- | --- |
| CC[C@H](C)[C@H](NC(=O)[C@@H](NC(=O)[C@H](CO)NC(=O)[C@H](CC(=O)O)NC(=O)[C@@H](N)CO)C(C)C)C(=O)N[C@@H](CC(C)C)C(=O)N[C@@H](CC(N)=O)C(=O)N[C@H](C(=O)N[C@@H](CC(C)C)C(=O)N[C@@H](Cc1ccc(O)cc1)C(=O)NCC(=O)N1CCC[C@H]1C(=O)N[C@@H](CC(=O)O)C(=O)N[C@@H](C)C(=O)N1CCC[C@H]1C(=O)O)C(C)C [Peptide 9019.0119] | purified HLA DRB4*0101 (Homo sapiens, UniProt P01903+P13762, G164S) | nM | 612 |
| CC[C@H](C)[C@H](NC(=O)[C@H](CC(C)C)NC(=O)[C@H](C)NC(=O)[C@@H](NC(=O)CNC(=O)[C@@H](NC(=O)[C@H](CC(C)C)NC(=O)[C@@H](NC(=O)CNC(=O)[C@@H](NC(=O)[C@H](CCSC)NC(=O)[C@@H](NC(=O)CNC(=O)[C@@H](NC(=O)[C@@H](N)[C@@H](C)O)C(C)C)[C@@H](C)CC)[C@@H](C)CC)C(C)C)C(C)C)C(C)C)C(=O)O [Peptide 1622.05] | purified HLA DRB4*0101 (Homo sapiens, UniProt P01903+P13762, G164S) | nM | 12100 |
| CC(C)C[C@H](NC(=O)[C@H](CCCNC(=N)N)NC(=O)[C@H](CCC(=O)O)NC(=O)[C@@H]1CCCN1)C(=O)N[C@@H](C)C(=O)N[C@@H](C)C(=O)N[C@@H](CS)C(=O)NCC(=O)N1CCC[C@H]1C(=O)N1CCC[C@H]1C(=O)N1CCC[C@H]1C(=O)N[C@H](C(=O)N[C@@H](C)C(=O)N1CCC[C@H]1C(=O)N1CCC[C@H]1C(=O)O)C(C)C [Peptide 9019.0179] | purified HLA DRB4*0101 (Homo sapiens, UniProt P01903+P13762, G164S) | nM | 4460 |
